Measured Ki, listed per entry for reference.
target: BChE (Homo sapiens); assay: biochemical; type: biochemical; conditions: read-out: Ki BChE
Just the number in nM, nothing appended.

S=c1sc2ccccc2n1CN1CCOCC1; 32
COCCOCNc1nccs1; 45
S=c1oc2ccccc2n1CN1CCOCC1; 23

Moving on to another molecule below.
Suppose we examine the molecule S=c1oc2ccccc2n1CN1CCOC1 ; what Ki value has been reported?
80

====

biological target: BChE (Homo sapiens, UniProt P06276); test: biochemical; type: biochemical
Sequence (P06276 29-602): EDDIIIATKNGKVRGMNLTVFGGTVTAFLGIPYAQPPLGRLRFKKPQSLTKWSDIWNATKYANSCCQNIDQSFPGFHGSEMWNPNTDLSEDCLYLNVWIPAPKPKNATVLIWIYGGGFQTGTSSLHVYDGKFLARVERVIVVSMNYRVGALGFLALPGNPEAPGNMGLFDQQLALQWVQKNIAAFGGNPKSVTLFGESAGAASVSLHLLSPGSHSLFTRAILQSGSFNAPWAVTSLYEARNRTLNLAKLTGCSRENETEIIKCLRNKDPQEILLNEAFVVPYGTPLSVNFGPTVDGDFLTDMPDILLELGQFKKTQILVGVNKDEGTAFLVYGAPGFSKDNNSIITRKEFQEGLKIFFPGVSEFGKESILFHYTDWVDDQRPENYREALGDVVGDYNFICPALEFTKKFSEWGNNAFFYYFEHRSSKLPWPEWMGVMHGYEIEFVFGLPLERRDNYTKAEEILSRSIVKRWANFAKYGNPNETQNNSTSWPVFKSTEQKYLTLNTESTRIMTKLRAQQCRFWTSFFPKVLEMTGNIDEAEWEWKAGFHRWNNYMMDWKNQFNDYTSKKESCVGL
PROPERTY: Ki
Quick note: number first, unit second.

COCNc1nccs1 [Compound 17, 2-(methoxy)methylaminothiazole]; 42 nM
CC(C)OCn1c(=S)oc2ccccc21 [Compound 13, N-isopropoxymethylbenzoxazoline-2-thione]; 35 nM
CCN(CC)Cn1c(=S)oc2ccccc21 [Compound 6]; 30 nM
COCCOCn1c(=S)oc2ccccc21 [Compound 14]; 60 nM

Suppose we examine the compound CCN(CC)Cn1c(=S)sc2ccccc21 [Compound 5] ; what Ki value has been reported?
51 nM

How about CC(C)OCNc1nccs1 [Compound 16, 2-isopropoxymethylaminothiazole] ?
55 nM

How about S=c1sc2ccccc2n1CN1CCCCC1 [Compound 4] ?
41 nM

====

molecular target: UniProt:P22303; test: biochemical; type: biochemical; conditions: ratio of Ki AChE to Ki BChE
Sequence (P22303 32-614): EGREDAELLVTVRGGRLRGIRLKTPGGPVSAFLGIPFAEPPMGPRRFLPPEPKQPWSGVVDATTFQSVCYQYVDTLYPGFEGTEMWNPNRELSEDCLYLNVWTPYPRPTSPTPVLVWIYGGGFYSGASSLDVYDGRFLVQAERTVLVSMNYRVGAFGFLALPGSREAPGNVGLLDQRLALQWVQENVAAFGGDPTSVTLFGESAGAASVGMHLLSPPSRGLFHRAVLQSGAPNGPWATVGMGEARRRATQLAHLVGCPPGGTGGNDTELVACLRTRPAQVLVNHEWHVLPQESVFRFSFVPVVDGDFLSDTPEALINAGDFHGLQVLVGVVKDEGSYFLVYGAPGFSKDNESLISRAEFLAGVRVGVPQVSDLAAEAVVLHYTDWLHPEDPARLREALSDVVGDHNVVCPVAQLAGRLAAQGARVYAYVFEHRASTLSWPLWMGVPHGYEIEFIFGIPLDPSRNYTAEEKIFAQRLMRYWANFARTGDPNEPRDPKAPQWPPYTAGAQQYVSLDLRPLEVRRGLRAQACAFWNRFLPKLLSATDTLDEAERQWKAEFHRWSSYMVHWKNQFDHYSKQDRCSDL
Measured AChE/BChE (proportion of AChE to BChE, selectivity), listed per entry for reference.
Just the number, please, no unit after it.

CCN(CC)Cn1c(=S)oc2ccccc21; 1.500
S=c1sc2ccccc2n1CN1CCOCC1; 0.812
CC(C)OCNc1nccs1; 0.763
CCN(CC)Cn1c(=S)sc2ccccc21; 0.666

Suppose we examine the compound CC(C)OCn1c(=S)oc2ccccc21 ; what AChE/BChE (proportion of AChE to BChE, selectivity) value has been reported?
0.971

====

target: hCA I (Homo sapiens); construct: from tissue; host or cells: fresh human erythrocytes; experiment: biochemical; type: biochemical
PROPERTY: pIC50
// scale note: pIC50 = -log10(conc_M); give the bare number

Suppose we examine the compound CCN(CC)Cn1c(=S)sc2ccccc21 ; what pIC50 value has been reported?
7.09

====

Biological target: hCA I (Homo sapiens, UniProt P00915)
Construct: from tissue; host or cells: fresh human erythrocytes
Sequence (P00915 whole entry): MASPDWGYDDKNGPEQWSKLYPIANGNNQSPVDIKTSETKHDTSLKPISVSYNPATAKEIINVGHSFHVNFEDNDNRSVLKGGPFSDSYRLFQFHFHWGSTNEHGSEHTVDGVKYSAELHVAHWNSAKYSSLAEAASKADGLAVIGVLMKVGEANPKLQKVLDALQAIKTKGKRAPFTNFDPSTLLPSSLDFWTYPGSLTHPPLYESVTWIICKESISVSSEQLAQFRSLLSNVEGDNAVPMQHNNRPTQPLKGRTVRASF
Assay: biochemical
Format: biochemical
Settings: three concentrations used; read-out: Ki hCA I
Protocol: CA activity was determined using the previously described spectrophotometric procedure of Verpoorte et al. as explained previously.[21] ^, [57] ^, [58] […] The quantity of protein was measured according to the previously described by Bradford method.[61–64] and bovine serum albumin was used as the standard.[65] ^, [66] […] The IC50 values were calculated from activity (%) against compounds inhibition.[72–74] […]
Measured Ki, listed per entry for reference.
Just the number in nM, nothing appended.

CC(C)OCNc1nccs1; 132

Suppose we examine the molecule S=c1oc2ccccc2n1CN1CCOC1 ; what Ki value has been reported?
76

How about COCNc1nccs1 ?
157

How about CCN(CC)Cn1c(=S)oc2ccccc21 ?
123

How about COCCOCNc1nccs1 ?
118

How about S=c1sc2ccccc2n1CN1CCOCC1 ?
108

How about S=c1oc2ccccc2n1CN1CCOCC1 ?
58

How about CC(C)OCn1c(=S)oc2ccccc21 ?
90

How about COCCOCn1c(=S)oc2ccccc21 ?
119

How about S=c1sc2ccccc2n1CN1CCCCC1 ?
86

====

biological target: hCA II (Homo sapiens, UniProt P00918); construct: from tissue; host or cells: fresh human erythrocytes; assay: biochemical; type: biochemical; conditions: three concentrations used; read-out: Ki hCA II
Returns: string. Value is condition met if measured Ki is below 100 nM, and condition not met if it is greater than or equal to it.

Solved cases (8 shown):
CCN(CC)Cn1c(=S)oc2ccccc21; condition not met
CC(C)OCNc1nccs1; condition not met
S=c1oc2ccccc2n1CN1CCOC1; condition not met
COCNc1nccs1; condition not met
COCCOCn1c(=S)oc2ccccc21; condition not met
CC(C)OCn1c(=S)oc2ccccc21; condition met
S=c1oc2ccccc2n1CN1CCOCC1; condition not met
S=c1sc2ccccc2n1CN1CCOCC1; condition met

Kindly consider the entry below.
Please indicate whether the reported Ki of COCCOCNc1nccs1 is strictly below 100 nM.
condition not met
